meta.source: patent US10800791B2

Answer each item with its documented IC90.
test system: Fusarium virguliforme (Fv); test: Growth inhibition assay of fungal pathogens, Fv; type: cell-based; conditions: 48 h, growth inhibition vs 2% DMSO control at 48 hours, read-out: Concentration at 90% Inhibition Fv
Quick reminder: number only, in µg/mL, skip the unit.

Task: Return reported IC90; argument: Cc1c(-n2nccn2)sc2c1c(=O)n(C(C)(C)C(=O)NC(C)C)c(=O)n2C[C@H](OC(C)C)c1cc(F)ccc1OCCO [Compound I-53]
Output: 0.4

Task: Return reported IC90; argument: COc1ccc(F)cc1[C@H](Cn1c(=O)n(C(C)(C)C(=O)NC2CC2)c(=O)c2c(C)c(-n3nccn3)sc21)OC(C)C [Compound I-73]
Output: 0.4

Task: Return reported IC90; argument: COc1ccc(F)cc1[C@H](Cn1c(=O)n(C(C)(C)C(=O)N2CCCC2)c(=O)c2c(C)c(-n3nccn3)sc21)OC(C)C [Compound I-7]
Output: 0.08

Task: Return reported IC90; argument: COc1ccc(F)cc1[C@H](Cn1c(=O)n(C(C)(C)C(=O)NC(C)C)c(=O)c2c(C)c(-n3nccn3)sc21)OCCC(N)=O [Compound I-90]
Output: 0.4

Task: Return reported IC90; argument: COCCO[C@@H](Cn1c(=O)n(C(C)C(=O)N2CCCC2)c(=O)c2c(C)c(-n3nccn3)sc21)c1cc(F)ccc1OC (stereo partly drawn) [Compound I-64]
Output: 0.4

----------
molecular target: human (hACC2) (Homo sapiens); assay: In vitro ACC inhibition assay (ADP-Glo), hACC2; format: biochemical; conditions: Table 2b, additional results, 5 nM ACC2, 20 μM ATP, 20 μM acetyl-CoA
Sequence (O00763 whole entry): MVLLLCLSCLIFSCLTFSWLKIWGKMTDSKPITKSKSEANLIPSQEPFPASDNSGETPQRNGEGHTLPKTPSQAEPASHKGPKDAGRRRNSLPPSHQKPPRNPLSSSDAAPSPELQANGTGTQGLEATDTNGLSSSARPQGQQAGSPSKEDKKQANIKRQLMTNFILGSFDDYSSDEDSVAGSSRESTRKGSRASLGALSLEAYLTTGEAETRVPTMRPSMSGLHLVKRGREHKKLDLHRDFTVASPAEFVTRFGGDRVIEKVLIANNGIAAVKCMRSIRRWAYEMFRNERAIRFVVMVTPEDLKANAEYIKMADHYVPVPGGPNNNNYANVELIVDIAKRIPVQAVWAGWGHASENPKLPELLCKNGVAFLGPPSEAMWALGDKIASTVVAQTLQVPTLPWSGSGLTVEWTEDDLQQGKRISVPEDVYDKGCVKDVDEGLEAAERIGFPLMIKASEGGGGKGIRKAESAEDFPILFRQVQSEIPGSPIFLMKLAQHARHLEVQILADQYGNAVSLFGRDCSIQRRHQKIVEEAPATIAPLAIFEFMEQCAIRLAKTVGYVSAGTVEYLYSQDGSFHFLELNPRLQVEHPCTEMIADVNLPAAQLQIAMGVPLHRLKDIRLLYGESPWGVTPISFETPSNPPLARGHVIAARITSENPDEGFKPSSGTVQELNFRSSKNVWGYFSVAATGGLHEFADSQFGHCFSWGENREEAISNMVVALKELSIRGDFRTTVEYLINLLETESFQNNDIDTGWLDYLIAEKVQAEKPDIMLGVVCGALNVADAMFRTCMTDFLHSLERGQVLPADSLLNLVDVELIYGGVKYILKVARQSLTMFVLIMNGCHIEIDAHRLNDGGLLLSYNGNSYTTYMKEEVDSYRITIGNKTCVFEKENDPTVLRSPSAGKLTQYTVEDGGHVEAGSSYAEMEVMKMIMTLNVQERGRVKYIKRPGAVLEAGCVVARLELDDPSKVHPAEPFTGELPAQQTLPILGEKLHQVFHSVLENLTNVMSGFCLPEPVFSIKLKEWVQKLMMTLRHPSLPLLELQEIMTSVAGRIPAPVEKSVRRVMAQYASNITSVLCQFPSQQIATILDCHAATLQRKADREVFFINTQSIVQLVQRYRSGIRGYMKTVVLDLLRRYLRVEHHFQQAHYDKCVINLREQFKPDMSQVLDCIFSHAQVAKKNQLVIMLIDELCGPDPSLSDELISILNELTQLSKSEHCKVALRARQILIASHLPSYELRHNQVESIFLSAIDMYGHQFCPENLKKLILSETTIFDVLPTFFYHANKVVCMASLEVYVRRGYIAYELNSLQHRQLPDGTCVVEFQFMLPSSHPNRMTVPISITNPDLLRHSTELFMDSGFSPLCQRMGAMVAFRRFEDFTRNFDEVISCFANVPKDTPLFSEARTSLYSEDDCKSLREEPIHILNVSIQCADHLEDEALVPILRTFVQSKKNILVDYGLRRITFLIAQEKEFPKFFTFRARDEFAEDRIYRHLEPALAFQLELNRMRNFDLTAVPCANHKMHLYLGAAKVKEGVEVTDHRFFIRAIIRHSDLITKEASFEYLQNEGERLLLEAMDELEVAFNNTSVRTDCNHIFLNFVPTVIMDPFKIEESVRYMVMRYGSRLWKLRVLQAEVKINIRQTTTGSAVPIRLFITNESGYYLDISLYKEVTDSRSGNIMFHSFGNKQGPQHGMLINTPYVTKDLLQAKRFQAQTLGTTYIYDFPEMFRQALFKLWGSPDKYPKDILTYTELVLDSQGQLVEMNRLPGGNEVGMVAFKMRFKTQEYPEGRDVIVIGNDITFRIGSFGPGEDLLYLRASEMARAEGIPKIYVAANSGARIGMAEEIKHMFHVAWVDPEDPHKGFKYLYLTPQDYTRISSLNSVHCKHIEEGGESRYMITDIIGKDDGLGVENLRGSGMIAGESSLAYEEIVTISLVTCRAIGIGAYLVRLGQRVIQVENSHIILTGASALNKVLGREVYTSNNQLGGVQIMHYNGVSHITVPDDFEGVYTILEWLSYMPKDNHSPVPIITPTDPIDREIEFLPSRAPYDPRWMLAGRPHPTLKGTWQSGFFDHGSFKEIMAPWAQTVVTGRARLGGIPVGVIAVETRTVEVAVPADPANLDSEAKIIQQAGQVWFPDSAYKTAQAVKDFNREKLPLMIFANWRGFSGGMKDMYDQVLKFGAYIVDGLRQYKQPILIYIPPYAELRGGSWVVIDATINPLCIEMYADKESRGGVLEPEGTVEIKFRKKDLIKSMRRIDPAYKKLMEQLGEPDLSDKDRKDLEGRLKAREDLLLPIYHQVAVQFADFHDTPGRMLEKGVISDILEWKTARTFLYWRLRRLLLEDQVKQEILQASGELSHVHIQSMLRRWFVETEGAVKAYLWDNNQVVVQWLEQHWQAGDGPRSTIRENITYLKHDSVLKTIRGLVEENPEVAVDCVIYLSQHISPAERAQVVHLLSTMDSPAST
pIC50: −log10 of the molar value.
Property Measured: pIC50

Task: Return reported pIC50; argument: COc1ccc(F)cc1[C@H](Cn1c(=O)n(C(C)(C)C(=O)NC(C)(C)C)c(=O)c2c(C)c(-n3nccn3)sc21)OCCCO
Output: 8.00 to 8.30

Task: Return reported pIC50; argument: COc1ccc(F)cc1[C@H](Cn1c(=O)n(C(C)(C)C(=O)NC(C)C)c(=O)c2c(C)c(-n3nccn3)sc21)OC(C)=O
Output: < 7.40

Task: Return reported pIC50; argument: CCNC(=O)C(C)(C)n1c(=O)c2c(C)c(-n3nccn3)sc2n(C[C@H](OCC(C)C)c2cc(F)ccc2OC)c1=O
Output: 8.30 to 9.00

Task: Return reported pIC50; argument: COc1ccccc1[C@H](Cn1c(=O)n(C(C)(C)C(=O)NC(C)C)c(=O)c2c(C)c(-n3nccn3)sc21)OC1CCOCC1
Output: 8.00 to 8.30

Task: Return reported pIC50; argument: COc1ccc(F)cc1[C@H](Cn1c(=O)n(C(C)(C)C(=O)NC(C)C)c(=O)c2c(C)c(-n3nccn3)sc21)OC(C)C
Output: 8.00 to 8.30

Task: Return reported pIC50; argument: COc1ccc(F)cc1[C@H](Cn1c(=O)n(C(C)(C)C(=O)N2CC=CC2)c(=O)c2c(C)c(-n3nccn3)sc21)OC[C@@H](C)O
Output: 8.00 to 8.30

Task: Return reported pIC50; argument: COc1ccc(F)cc1[C@H](Cn1c(=O)n([C@@H](C)C(N)=O)c(=O)c2c(C)c(-n3nccn3)sc21)OCC(C)(C)C#N
Output: 8.00 to 8.30

Task: Return reported pIC50; argument: COc1ccc(F)cc1[C@H](Cn1c(=O)n([C@@H](C)C(=O)NC2CCC2)c(=O)c2c(C)c(-n3nccn3)sc21)OCCO
Output: 7.40 to 8.00

Task: Return reported pIC50; argument: COc1ccc(F)cc1[C@H](Cn1c(=O)n([C@H](C)C(=O)N(C)C(C)C)c(=O)c2c(C)c(-n3nccn3)sc21)O[C@H]1CC[C@@H](O)CC1
Output: 8.30 to 9.00

Task: Return reported pIC50; argument: COCCO[C@@H](Cn1c(=O)n(C(C)(C)C(=O)NC(C)C)c(=O)c2c(C)c(-n3nccn3)sc21)c1cc(F)ccc1OC
Output: 8.00 to 8.30

Task: Return reported pIC50; argument: COc1ccc(F)cc1[C@H](Cn1c(=O)n(C(C)(C)C(=O)NC(C)C)c(=O)c2c(C)c(-n3nccn3)sc21)O[C@H]1CC[C@@H](C(=O)O)CC1
Output: 7.40 to 8.00

Task: Return reported pIC50; argument: COc1ccc(F)cc1[C@H](Cn1c(=O)n(C(C)(C)C(=O)NC2CC2)c(=O)c2c(C)c(-n3nccn3)sc21)OC(C)C
Output: 8.00 to 8.30

----------
Answer each item with its documented IC50.
target: fungal (fACC2); details: read-out: fACC2 (in vitro ACC2 Inhibition Assay, IC50); Table 2b, additional results; ADP-Glo, 5 nM ACC2, 20 μM ATP, 20 μM acetyl-CoA

Task: Return reported IC50; argument: COc1ccccc1[C@@H](O)Cn1c(=O)n([C@@H](C)C(=O)NC(C)C)c(=O)c2c(C)c(-n3nccn3)sc21
Output: 0.3 to 1 nM

Task: Return reported IC50; argument: COc1ccc(F)cc1[C@H](Cn1c(=O)n(C(C)(C)C(=O)NC(C)C)c(=O)c2c(C)c(-n3nccn3)sc21)OCC#N
Output: 1 to 5 nM

Task: Return reported IC50; argument: COc1ccc(F)cc1[C@H](Cn1c(=O)n(C(C)(C)C(=O)NC(C)C)c(=O)c2c(C)c(-n3nccn3)sc21)OCCC(C)=O
Output: 1 to 5 nM

Task: Return reported IC50; argument: COc1ccc(F)cc1[C@H](Cn1c(=O)n(C(C)(C)C(=O)NC(C)C)c(=O)c2c(C)c(-n3nccn3)sc21)OCCCO
Output: 0.3 to 1 nM

Task: Return reported IC50; argument: Cc1c(-n2nccn2)sc2c1c(=O)n(C(C)(C)C(=O)NC(C)C)c(=O)n2C[C@H](OCC(C)(C)O)c1cc(F)ccc1OCC#N
Output: 1 to 5 nM

Task: Return reported IC50; argument: COc1ccc(F)cc1[C@H](Cn1c(=O)n(C(C)(C)C(=O)NC(C)C)c(=O)c2c(C)c(-n3nccn3)sc21)OCCC#N
Output: 1 to 5 nM

Task: Return reported IC50; argument: COCCO[C@@H](Cn1c(=O)n([C@H](C)C(=O)N2CCCC2)c(=O)c2c(C)c(-n3nccn3)sc21)c1cc(F)ccc1OC
Output: 0.3 to 1 nM

Task: Return reported IC50; argument: Cc1c(-n2nccn2)sc2c1c(=O)n(C(C)(C)C(=O)NC(C)C)c(=O)n2C[C@H](OCCC#N)c1cc(F)ccc1O
Output: 0.3 to 1 nM

Task: Return reported IC50; argument: COc1ccc(F)cc1[C@H](Cn1c(=O)n([C@@H](C)C(=O)N2CCCC2)c(=O)c2c(C)c(-n3nccn3)sc21)OCC(C)(C)O
Output: 1 to 5 nM

Task: Return reported IC50; argument: COc1ccc(F)cc1[C@H](Cn1c(=O)n(C(C)(C)C(N)=O)c(=O)c2c(C)c(-n3nccn3)sc21)OC(C)C
Output: 1 to 5 nM

Task: Return reported IC50; argument: CCNC(=O)C(C)(C)n1c(=O)c2c(C)c(-n3nccn3)sc2n(C[C@H](OCCC#N)c2cc(F)ccc2OC)c1=O
Output: 1 to 5 nM

Task: Return reported IC50; argument: COCCO[C@@H](Cn1c(=O)n(CC(=O)N2CCCC2)c(=O)c2c(C)c(-n3nccn3)sc21)c1cc(F)ccc1OC
Output: 1 to 5 nM

Task: Return reported IC50; argument: COCCO[C@@H](Cn1c(=O)n(C(C)(C)C(=O)OC(C)C)c(=O)c2c(C)c(-n3nccn3)sc21)c1cc(F)ccc1OC
Output: 1 to 5 nM

----------
test system: C. krusei; experiment: Antifungal Activity Assay (broth microtiter MIC), C. krusei; type: cell-based, Candida krusei; settings: Pichia kudriavzevii, ATCC6258, 48 h, read-out: MIC, C. krusei ATCC 6258, Table 3b (additional results), 3 replicates, MIC recorded at 48 h
Property Measured: MIC

Task: # query: MIC | item COCCO[C@@H](Cn1c(=O)n(CC(=O)NC(C)C)c(=O)c2c(C)c(-n3nccn3)sc21)c1cc(F)ccc1OC | system: C. krusei
Output: > 4.01 µg/mL

Task: # query: MIC | item COc1ccccc1[C@@H](O)Cn1c(=O)n(C(C)(C)C(=O)NC(C)C)c(=O)c2c(C)c(-n3nccn3)sc21 | system: C. krusei
Output: 0.25 to 1 µg/mL

Task: # query: MIC | item CCNC(=O)C(C)(C)n1c(=O)c2c(C)c(-n3nccn3)sc2n(C[C@H](OC(C)C)c2cc(F)ccc2OC)c1=O | system: C. krusei
Output: 0.25 to 1 µg/mL

Task: # query: MIC | item COc1ccc(F)cc1[C@H](Cn1c(=O)n([C@H](C)C(=O)NC(C)C)c(=O)c2c(C)c(-n3nccn3)sc21)OCCO | system: C. krusei
Output: 1.01 to 2 µg/mL

Task: # query: MIC | item CCOC(=O)c1ccccc1[C@H](Cn1c(=O)n(C(C)(C)C(=O)NC(C)C)c(=O)c2c(C)c(-n3nccn3)sc21)OCCC#N | system: C. krusei
Output: 2.01 to 4 µg/mL

Task: # query: MIC | item COc1ccc(F)cc1[C@H](Cn1c(=O)n(C(C)(C)C(=O)N2CCCCC2)c(=O)c2c(C)c(-n3nccn3)sc21)OCC(C)C | system: C. krusei
Output: 0.25 to 1 µg/mL

Task: # query: MIC | item COc1ccc(F)cc1[C@H](Cn1c(=O)n(C(C)(C)C(=O)NC(C)C)c(=O)c2c(C)c(-n3nccn3)sc21)OCCC(C)(C)O | system: C. krusei
Output: 0.25 to 1 µg/mL

Task: # query: MIC | item COc1ccc(F)cc1[C@H](Cn1c(=O)n(C(C)(C)C(=O)N2CCOCC2)c(=O)c2c(C)c(-n3nccn3)sc21)OC(C)C | system: C. krusei
Output: 2.01 to 4 µg/mL

Task: # query: MIC | item COc1ccc(F)cc1[C@H](Cn1c(=O)n(C(C)(C)C(=O)NC(C)C)c(=O)c2c(C)c(-n3nccn3)sc21)OC[C@H](C)O | system: C. krusei
Output: 1.01 to 2 µg/mL

Task: # query: MIC | item COc1ccc(F)cc1[C@H](Cn1c(=O)n(C(C)(C)C(=O)NC(C)C)c(=O)c2c(C)c(-n3nccn3)sc21)O[C@H]1CC[C@@H](C#N)CC1 | system: C. krusei
Output: 0.06 to 0.249 µg/mL

Task: # query: MIC | item COc1ccc(F)cc1[C@H](Cn1c(=O)n(C(C)(C)C(=O)NC(C)C)c(=O)c2c(C)c(-n3nccn3)sc21)OCCC(=O)N(C)O | system: C. krusei
Output: 0.25 to 1 µg/mL

Task: # query: MIC | item COc1ccc(F)cc1[C@H](Cn1c(=O)n(C(C)(C)C(=O)NC(C)C)c(=O)c2c(C)c(-n3nccn3)sc21)OCC#N | system: C. krusei
Output: 0.25 to 1 µg/mL

Task: # query: MIC | item COc1ccc(F)cc1[C@@H](Cn1c(=O)n(C(C)(C)C(=O)NC(C)C)c(=O)c2c(C)c(-n3nccn3)sc21)OC(=O)C(C)(C)O | system: C. krusei
Output: 0.25 to 1 µg/mL

Task: # query: MIC | item COc1ccc(F)cc1[C@H](Cn1c(=O)n([C@H](C)C(=O)NC(C)C)c(=O)c2c(C)c(-n3nccn3)sc21)OCC(C)(C)O | system: C. krusei
Output: 2.01 to 4 µg/mL

Task: # query: MIC | item COc1ccc(F)cc1[C@H](Cn1c(=O)n([C@H](C)C(=O)NC(C)C)c(=O)c2c(C)c(-n3nccn3)sc21)OCCC#N | system: C. krusei
Output: 2.01 to 4 µg/mL

Task: # query: MIC | item COc1ccc(F)cc1[C@H](Cn1c(=O)n(C(C)(C)C(=O)NC(C)C)c(=O)c2c(C)c(-n3nccn3)sc21)OC1CCC(=O)CC1 | system: C. krusei
Output: 0.06 to 0.249 µg/mL

Task: # query: MIC | item COc1ccc(F)cc1[C@H](Cn1c(=O)n(C(C)(C)C(=O)N2CCCCC2)c(=O)c2c(C)c(-n3nccn3)sc21)OC1CCOCC1 | system: C. krusei
Output: 0.25 to 1 µg/mL

Task: # query: MIC | item COc1ccc(F)cc1[C@H](Cn1c(=O)n(C(C)(C)C(=O)NC(C)C)c(=O)c2c(C)c(-n3nccn3)sc21)OC(C)C | system: C. krusei
Output: 0.25 to 1 µg/mL

Task: # query: MIC | item Cc1c(-n2nccn2)sc2c1c(=O)n(C(C)(C)C(=O)NC1CCC1)c(=O)n2C[C@H](OC(C)C)c1cc(F)ccc1OCC#N | system: C. krusei
Output: 0.25 to 1 µg/mL

Task: # query: MIC | item COc1ccc(F)cc1[C@H](Cn1c(=O)n(C(C)(C)C(=O)N2CCCCC2)c(=O)c2c(C)c(-n3nccn3)sc21)OC(C)C | system: C. krusei
Output: 0.25 to 1 µg/mL

Task: # query: MIC | item COc1ccc(F)cc1[C@H](Cn1c(=O)n(C(C)(C)C(=O)NC(C)C)c(=O)c2c(C)c(-n3nccn3)sc21)OCCS(C)(=O)=O | system: C. krusei
Output: 1.01 to 2 µg/mL

Task: # query: MIC | item COc1ccccc1[C@H](Cn1c(=O)n(C(C)(C)C(=O)NC(C)C)c(=O)c2c(C)c(-n3nccn3)sc21)OCCC#N | system: C. krusei
Output: 0.25 to 1 µg/mL

Task: # query: MIC | item COc1ccc(F)cc1[C@H](Cn1c(=O)n(CC(=O)NC(C)C)c(=O)c2c(C)c(-n3nccn3)sc21)OC(C)C | system: C. krusei
Output: > 4.01 µg/mL

Task: # query: MIC | item COc1ccc(F)cc1[C@H](Cn1c(=O)n(C(C)(C)C(=O)NC(C)C)c(=O)c2c(C)c(-n3nccn3)sc21)OCC(C)(C)C#N | system: C. krusei
Output: 0.25 to 1 µg/mL

Task: # query: MIC | item Cc1c(-n2nccn2)sc2c1c(=O)n(C(C)(C)C(=O)NC(C)C)c(=O)n2C[C@H](O)c1cc(F)ccc1OCC#N | system: C. krusei
Output: 2.01 to 4 µg/mL
